I'd be grateful if you could share measured growth inhibition for these entries.
- assay_procedure: NCI Yeast Anticancer Drug Screen. Data for the bub3 strain (AID 167)
- measurement_context: S. cerevisiae bub3 mutant strain, at 50.0 µM, active compounds read high
About 79,000 compounds went through this panel and 15% of them were active in at least one assay; those are over-represented in the sample as a whole.
Numbers only, in %.

Example cases with answers are listed next.
compound: COc1cc2c(cc1OC)C(Cc1cc(Br)c(OC)c(OC)c1)=[N+](C)CC2
growth inhibition, %: 1.05
--
compound: CC/C(N)=N\OC(=O)c1ccccc1
growth inhibition, %: 2.8

// for each compound in input: emit growth inhibition
1. NNc1cc(=O)[nH]c(N)n1
2. CCCCCCCCCCCC(=O)NC(=S)Nc1ccc(C)c(C)c1

OUT:
1: -6.95; 2: 57.5

Each compound below has a recorded value; state its growth inhibition.
1. Ic1ccc(-n2cccc2)cc1
2. CC1(C)N=C(N)N=C(N)N1c1ccc(CN)cc1
3. O=c1[nH]c(=O)c2nnoc2[nH]1

OUT:
1. 13.8
2. -2.3
3. 7.4

Provide each entry's growth inhibition from the list below.
1. CCCCCC/C=C\CCCCCCCCCc1cccc(OC)c1O
2. Cc1ccc(CSC(=S)NNc2ccccc2)cc1C
3. CCn1c(=O)ccc2ccc(N(CCO)CCO)nc21
4. CCOC(=O)CN(C=O)C(C)c1ccccc1 (centres undefined)

OUT:
[7.8, -32.6, -9, 33.6]

Parameters: items (list). Returns: growth inhibition for each item.
1. CCC1CN2CCc3cc(OC)c(OC)cc3C2CC1CC1c2cc(OC)c(OC)cc2CCN1C(=O)C1CCCN1 (centres undefined)
2. CC(NC(=O)N=Nc1ccccc1)C(=O)O (centres undefined)
3. O=c1[nH]c(=S)[nH]c2c1CCC2
4. CC1OCOC(CO)C(O)C1O (centres undefined)
5. O=C1OCCN1N1C(=O)CC2(CCN(Cc3ccccc3)CC2)C1=O
6. CCOC(=O)Nc1ccc(C2SCCN2C(=O)Nc2ccc(Cl)cc2)cc1 (centres undefined)
7. Cc1cc(C)c(C(=O)Oc2ccc(C)c(CC(Cl)(Cl)Cl)c2)c(C)c1

OUT:
7.65
-11.1
35.2
-3
0.25
-7.7
-0.2

For every listed record, write down its growth inhibition.
1. O=C1N=NC(=O)N1c1ccccc1
2. O=c1[nH]c2cc([N+](=O)[O-])ccc2nc1/C=C(\O)c1cccc([N+](=O)[O-])c1
3. CCOC(=O)C1=C(C)C/C(=N/NC(N)=O)CC1
4. O=C(Nc1cc(S(=O)(=O)O)cc2cc(S(=O)(=O)O)c(N=Nc3cc(Nc4nc(Cl)nc(Nc5ccc(S(=O)(=O)O)cc5)n4)ccc3S(=O)(=O)O)c(O)c12)c1ccccc1
5. O=c1[nH]c(-c2ccc(Cl)cc2)cs1
6. O=C(/C=C/c1ccc(O)cc1)c1ccc2c(c1)OCO2

OUT:
1. -0.05
2. -3.1
3. -0.95
4. 0.05
5. -19.9
6. 43
